System: 3T3 fibroblast bombesin receptors (3T3 GRP receptor) (Mus musculus)
Construct: Membranes from various tissues (rat brain, rat pancreas, rat anterior pituitary, SCLC, 3T3 cells) are prepared by homogenization; endogenous in cells; host or cells: 3T3 fibroblasts (membrane preparation)
Measurement protocol: In vitro inhibition of [125I]GRP binding to 3T3 fibroblast bombesin receptors
Design: species or system murine
Condition notes: Table 1
Non-standard residues stand in square brackets, D forms with d. Residues, ends and D or L forms follow the SMILES beside them. *: point of attachment. X2 = CC(C)C[C@@H](CN[C@@H](CC(C)C)C(N)=O)N*
Measured property: activity in the 3T3 GRP receptor binding assay (in words)

# Compound, Data value
rows = [
    ("CC(C)C[C@@H](CN[C@@H](CC(C)C)C(N)=O)NC(=O)[C@H](Cc1c[nH]cn1)NC(=O)CNC(=O)[C@@H](NC(=O)[C@H](C)NC(=O)[C@H](Cc1c[nH]c2ccccc12)NC(=O)[C@H](Cc1c[nH]cn1)NC(=O)[C@H](N)Cc1ccccc1)C(C)C [BIM-26107] (H-[dF]HWAVGH-X2)", "antagonists"),
    ("CC(C)C[C@@H](CN[C@@H](CC(C)C)C(N)=O)NC(=O)[C@H](Cc1c[nH]cn1)NC(=O)[C@@H](C)NC(=O)[C@@H](NC(=O)[C@H](C)NC(=O)[C@H](Cc1c[nH]c2ccccc12)NC(=O)[C@H](Cc1c[nH]cn1)NC(=O)[C@H](CC(N)=O)NC(=O)[C@@H](C)N)C(C)C [BIM-26105] (H-[dA]NHWAV[dA]H-X2; N-terminus assumed)", "antagonists"),
]

* * *

System: swiss 3T3 cells (Mus musculus, UniProt P21729)
Sequence (P21729 whole entry): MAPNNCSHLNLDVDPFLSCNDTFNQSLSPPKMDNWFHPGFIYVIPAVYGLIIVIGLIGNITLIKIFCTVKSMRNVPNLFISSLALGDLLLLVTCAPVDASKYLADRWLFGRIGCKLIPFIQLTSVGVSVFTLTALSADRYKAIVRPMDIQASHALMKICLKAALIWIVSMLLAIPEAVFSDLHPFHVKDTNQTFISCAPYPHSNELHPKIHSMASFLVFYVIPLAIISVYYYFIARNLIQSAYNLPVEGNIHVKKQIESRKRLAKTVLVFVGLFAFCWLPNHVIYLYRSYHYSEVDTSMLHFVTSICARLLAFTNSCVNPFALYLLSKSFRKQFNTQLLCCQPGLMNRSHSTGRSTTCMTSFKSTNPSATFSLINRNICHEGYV
Measurement protocol: Bombesin-stimulated [3H]thymidine uptake by cultured 3T3 cells
Type: cell-based, murine
Condition notes: Table 1
Non-standard residues stand in square brackets, D forms with d. Residues, ends and D or L forms follow the SMILES beside them. *: point of attachment. X2 = CC(C)C[C@@H](CN[C@@H](CC(C)C)C(N)=O)N*
Measured property: activity in the 3T3 thymidine uptake assay (in words)

# Molecule, Data value
measured = [
    ("CC(C)C[C@@H](CN[C@@H](CC(C)C)C(N)=O)NC(=O)[C@H](Cc1c[nH]cn1)NC(=O)[C@@H](C)NC(=O)[C@@H](NC(=O)[C@H](C)NC(=O)[C@H](Cc1c[nH]c2ccccc12)NC(=O)[C@H](Cc1c[nH]cn1)NC(=O)[C@H](CC(N)=O)NC(=O)[C@@H](C)N)C(C)C [BIM-26105] (H-[dA]NHWAV[dA]H-X2; N-terminus assumed)", "antagonists"),
    ("CC(C)C[C@@H](CN[C@@H](CC(C)C)C(N)=O)NC(=O)[C@H](Cc1c[nH]cn1)NC(=O)[C@@H](C)NC(=O)[C@@H](NC(=O)[C@H](C)NC(=O)[C@H](Cc1c[nH]c2ccccc12)NC(=O)[C@H](Cc1c[nH]cn1)NC(=O)[C@@H](C)N)C(C)C [BIM-26106] (H-[dA]HWAV[dA]H-X2; N-terminus assumed)", "antagonists"),
]

* * *

System: 3T3 fibroblast bombesin receptors (murine (3T3 murine fibroblasts)) (UniProt P21729)
Category scheme (bombesin-stimulated [3H]Thymidine uptake, IC50): lower bin = under 9 nM, middle bin = from 9 nM up to 200 nM, upper bin = 200 nM and over

# Substance, Label value
measured = [
    ("BIM-26182, D-Cpa-Gln-Trp-Ala-Val-Gly-His-β-Leu-NH2 (Litorin analog) (peptide)", "lower bin"),
    ("BIM-26105, D-Ala-Asn-His-Trp-Ala-Val-D-ALa-His-Leuψ[CH2CH]Leu-NH2 (Neuromedin C analog) (peptide)", "middle bin"),
    ("BIM-26136, D-Nal-Gln-Trp-Ala-Val-Gly-His-Leuψ[CH2NH]Phe-NH2 (Litorin analog) (peptide)", "lower bin"),
    ("BIM-26095, pGlu-Gln-Trp-Ala-Val-D-Ala-His-Leuψ[CH2NH]Leu-NH2 (Litorin analog) (peptide)", "upper bin"),
    ("BIM-26114, D-Nal-Gln-Trp-Ala-Val-Gly-His-Leuψ[CH2NH]Leu-NH2 (Litorin analog) (peptide)", "middle bin"),
]

Q) Any idea which band BIM-26108, N-Ac-D-Ala-His-Trp-Ala-Val-Gly-His-Leuψ[CH2NH]Leu-NH2 (GRP (19-27) analog) (peptide) is in?
A) upper bin

Q) Which category fits this record: BIM-26122, D-Phe-Gln-Trp-Ala-Val-Gly-His-Leu-NH2 (Litorin analog) (peptide)
A) middle bin

Q) Given BIM-26106, desGly-D-Ala-His-Trp-Ala-Val-D-ALa-His-Leuψ[CH2CH]Leu-NH2 (Neuromedin C analog) (peptide) , name the class its bombesin-stimulated [3H]Thymidine uptake, IC50 places it in.
A) upper bin

Q) Hi, small favor: classify BIM-26107, D-Phe-His-Trp-Ala-Val-Gly-His-Leuψ[CH2NH]Leu-NH2 (Neuromedin C analog) (peptide) by its bombesin-stimulated [3H]Thymidine uptake, IC50 when you get a moment.
A) middle bin

* * *

System: 3T3 fibroblast bombesin receptors (3T3 GRP receptor) (Mus musculus, UniProt P21729)
Construct: Membranes from various tissues (rat brain, rat pancreas, rat anterior pituitary, SCLC, 3T3 cells) are prepared by homogenization; endogenous in cells; host or cells: 3T3 fibroblasts (membrane preparation)
Sequence (P21729 whole entry): as above
Measurement protocol: In vitro inhibition of [125I]GRP binding to 3T3 fibroblast bombesin receptors
Set-up: species or system murine
Condition notes: Table 1
Non-standard residues stand in square brackets, D forms with d. Residues, ends and D or L forms follow the SMILES beside them. *: point of attachment. X2 = CC(C)C[C@@H](CN[C@@H](CC(C)C)C(N)=O)N*
Measured property: activity in the 3T3 GRP receptor binding assay (in words)

# Molecule, Data value
data = [
    ("CC(C)C[C@@H](CN[C@@H](CC(C)C)C(N)=O)NC(=O)[C@H](Cc1c[nH]cn1)NC(=O)[C@@H](C)NC(=O)[C@@H](NC(=O)[C@H](C)NC(=O)[C@H](Cc1c[nH]c2ccccc12)NC(=O)[C@H](Cc1c[nH]cn1)NC(=O)[C@@H](C)N)C(C)C [BIM-26106] (H-[dA]HWAV[dA]H-X2; N-terminus assumed)", "antagonists"),
    ("CC(C)C[C@@H](CN[C@@H](CC(C)C)C(N)=O)NC(=O)[C@H](Cc1c[nH]cn1)NC(=O)CNC(=O)[C@@H](NC(=O)[C@H](C)NC(=O)[C@H](Cc1c[nH]c2ccccc12)NC(=O)[C@H](Cc1c[nH]cn1)NC(=O)[C@H](CC(N)=O)NC(=O)CN)C(C)C [BIM-26092] (H-GNHWAVGH-X2)", "antagonists"),
]

* * *

System: 3T3 fibroblast bombesin receptors (murine (3T3 murine fibroblasts)) (UniProt P21729)
Measurement protocol: inhibition of [125I]GRP binding to 3T3 cell membranes
Measured property: IC50
// unit must come after the numeric part

Worked examples follow.
# Substance, IC50
rows = [
    ("BIM-26114, D-Nal-Gln-Trp-Ala-Val-Gly-His-Leuψ[CH2NH]Leu-NH2 (Litorin analog) (peptide)", "23.5 nM"),
    ("BIM-26136, D-Nal-Gln-Trp-Ala-Val-Gly-His-Leuψ[CH2NH]Phe-NH2 (Litorin analog) (peptide)", "1.4 nM"),
]

Q) Can you share its IC50? I mean this substance: BIM-26182, D-Cpa-Gln-Trp-Ala-Val-Gly-His-β-Leu-NH2 (Litorin analog) (peptide)
A) 0.88 nM

Where do these numbers come from? They come from patent US20050026827A1.
